Measured TGI, listed per entry.
Tested on: HT29 colon
Test: NCI tumour cell line growth inhibition, 48 h

>  <molecule>
COC(=O)c1c(CC#N)cccc1CC#N

>  <tested-system>
HT29 colon

>  <TGI>
> 100 µM

$$$$
>  <molecule>
O=c1c2cccnc2nc2ccc3c[nH][nH]c3c12

>  <tested-system>
HT29 colon

>  <TGI>
> 10 µM

$$$$
>  <molecule>
O=C([CH-]C(=O)c1ccccc1)c1ccccc1.O=C([CH-]C(=O)c1ccccc1)c1ccccc1.[Nd+3].[OH-].[OH3+]

>  <tested-system>
HT29 colon

>  <TGI>
26.2 µM

$$$$
>  <molecule>
CC(C)CC1c2[nH]c3ccccc3c2C[C@H]2C(=O)NC(CCC(=O)OC(C)(C)C)C(=O)N12 (stereo partly drawn)

>  <tested-system>
HT29 colon

>  <TGI>
43.1 µM

$$$$
>  <molecule>
N#CC12C3C4CC5C6C4C1C6C(O)(C53)N2Cc1ccccc1 (stereo not drawn)

>  <tested-system>
HT29 colon

>  <TGI>
> 100 µM

$$$$
>  <molecule>
C[Si](C)(C)OC1c2[nH]c3ccccc3c2CN2C(=O)CCC12 (stereo not drawn)

>  <tested-system>
HT29 colon

>  <TGI>
> 100 µM

$$$$
>  <molecule>
COC(=O)C1(O)c2ccccc2N=C2C(=O)c3ccccc3N21 (stereo not drawn)

>  <tested-system>
HT29 colon

>  <TGI>
> 100 µM

$$$$
>  <molecule>
O=C(Cc1ccccc1)c1ccc2[nH]c(=O)oc2c1

>  <tested-system>
HT29 colon

>  <TGI>
> 100 µM

$$$$
>  <molecule>
CCN(CC)CCOc1ccc(/C=C2\CC3C4CC=C5C[C@@H](N6CCCC6)CC[C@]5(C)C4CC[C@]3(C)[C@H]2O)cc1OC (stereo partly drawn)

>  <tested-system>
HT29 colon

>  <TGI>
> 100 µM

$$$$
>  <molecule>
CC(C)(C)N1NC1C1NN1C(C)(C)C (stereo not drawn)

>  <tested-system>
HT29 colon

>  <TGI>
> 100 µM

$$$$
>  <molecule>
[N-]=[N+]=Nc1ccc2c(c1)Sc1ccccc1N2CCCCCl

>  <tested-system>
HT29 colon

>  <TGI>
> 100 µM

$$$$
>  <molecule>
O=c1cc2ccccc2nn1-c1ccccc1Cl

>  <tested-system>
HT29 colon

>  <TGI>
> 100 µM

$$$$
>  <molecule>
CN(c1ccccc1)C(c1ccccc1)C(O)c1ccccc1 (stereo not drawn)

>  <tested-system>
HT29 colon

>  <TGI>
32.9 µM

$$$$
>  <molecule>
CCOC(=O)CC1=CSC2=NCCN12

>  <tested-system>
HT29 colon

>  <TGI>
> 100 µM

$$$$
>  <molecule>
CC(C)C(N=Cc1ccccc1O)C(=O)O (stereo not drawn)

>  <tested-system>
HT29 colon

>  <TGI>
> 100 µM

$$$$
>  <molecule>
S=C(Nc1cccc(Cl)c1)Nc1ccccn1

>  <tested-system>
HT29 colon

>  <TGI>
> 100 µM

$$$$
>  <molecule>
CC(C)(O)C1OCC(C2CCC3(C)C4=CCC5C(C)(C)C(O)CCC5(C)C4CCC23C)CC1O (stereo not drawn)

>  <tested-system>
HT29 colon

>  <TGI>
25.7 µM

$$$$
>  <molecule>
COC(=O)C(Nc1ccc(OC)cc1)c1ccccc1 (stereo not drawn)

>  <tested-system>
HT29 colon

>  <TGI>
> 100 µM

$$$$
>  <molecule>
Cc1cc2c(s1)C(=O)c1sccc1C2=O

>  <tested-system>
HT29 colon

>  <TGI>
4.3 µM

$$$$
>  <molecule>
Cc1ccc2c(=O)c3cccc(CC(=O)O)c3oc2c1C

>  <tested-system>
HT29 colon

>  <TGI>
> 100 µM

$$$$
>  <molecule>
COC(=O)c1ccc(N=NN(C)CO)cc1

>  <tested-system>
HT29 colon

>  <TGI>
> 100 µM

$$$$
>  <molecule>
Fc1ccc(-c2ccc(-c3nnc(-c4cc(F)c(Cl)cc4Cl)o3)o2)cc1Cl

>  <tested-system>
HT29 colon

>  <TGI>
50.9 µM

$$$$
>  <molecule>
COc1ccc(SC(C)(SC)c2ccccn2)c(OC)n1 (stereo not drawn)

>  <tested-system>
HT29 colon

>  <TGI>
> 100 µM

$$$$
>  <molecule>
CC1NC(/C(=C/c2ccccc2O)NC(=O)c2ccccc2)OC1=O (stereo not drawn)

>  <tested-system>
HT29 colon

>  <TGI>
> 50 µM

$$$$
>  <molecule>
COC(=O)C1=C(O)C(O)=C(C(=O)OC)C1

>  <tested-system>
HT29 colon

>  <TGI>
> 100 µM

$$$$
>  <molecule>
CCN(CC)Cc1cc(Nc2c3ccccc3nc3c2[nH]c2ccccc23)ccc1O

>  <tested-system>
HT29 colon

>  <TGI>
2.01 µM

$$$$
>  <molecule>
O=C(Nc1nc(C23CC4CC(CC(C4)C2)C3)cs1)c1cc2cc(Br)cc(Br)c2oc1=O

>  <tested-system>
HT29 colon

>  <TGI>
> 100 µM

$$$$
>  <molecule>
COc1cc2c(/C=C3/C(=O)Nc4ccccc43)c(Cl)n(Cc3ccccc3[N+](=O)[O-])c2cc1C

>  <tested-system>
HT29 colon

>  <TGI>
24.4 µM

$$$$
>  <molecule>
CCOC(=O)CCC(NC(=O)c1ccc(Nc2nc3cc(C(F)(F)F)ccc3nc2-c2ccccc2)cc1)C(=O)OCC (stereo not drawn)

>  <tested-system>
HT29 colon

>  <TGI>
> 100 µM

$$$$
>  <molecule>
CC(O)C(O)C(N)CC=O (stereo not drawn)

>  <tested-system>
HT29 colon

>  <TGI>
> 500 µM

$$$$
>  <molecule>
CCOC(=O)CC[C@@H](NC(=O)c1ccc(N[C@@H]2c3cc4c(cc3C(c3cc(OC)c(O)c(OC)c3)C3C(=O)OC[C@@H]32)OCO4)cc1)C(=O)OCC (stereo partly drawn)

>  <tested-system>
HT29 colon

>  <TGI>
0.751 µM

$$$$
>  <molecule>
C=C[C@H]1CN2CCc3c([nH]c4c([C@H]5CCCN5C)c(O)ccc34)[C@@H]2C[C@@H]1C[C@H]1c2[nH]c3ccccc3c2CCN1C

>  <tested-system>
HT29 colon

>  <TGI>
2.75 µM

$$$$
>  <molecule>
CC1=Cc2cc3[n-]c(cc4nc(cc5[n-]c(cc1n2)cc5C)C(C)=C4CCC(=O)O)c(CCC(=O)O)c3C.[Pd+2]

>  <tested-system>
HT29 colon

>  <TGI>
36.3 µM

$$$$
>  <molecule>
[C-]#[O+].[C-]#[O+].[Ir].[O-]c1cccc2cccnc12

>  <tested-system>
HT29 colon

>  <TGI>
> 100 µM

$$$$
>  <molecule>
COc1ccc2c3ccc4c(c3n(C)c2c1)C(=O)c1ccccc1C4=O

>  <tested-system>
HT29 colon

>  <TGI>
> 100 µM

$$$$
>  <molecule>
O=C(Nc1ccc(Cl)cc1)c1cc2ccccc2cc1O

>  <tested-system>
HT29 colon

>  <TGI>
> 100 µM

$$$$
>  <molecule>
CNC(=O)c1n[nH][nH]c1=O

>  <tested-system>
HT29 colon

>  <TGI>
> 100 µM

$$$$
>  <molecule>
O=C(CCCn1ccnc1[N+](=O)[O-])NCCn1ccnc1

>  <tested-system>
HT29 colon

>  <TGI>
> 100 µM

$$$$
>  <molecule>
C=C1C(=O)O[C@H]2[C@H]1CC/C(Cn1cc(-c3ccccc3)nn1)=C\CC[C@@]1(C)O[C@@H]21

>  <tested-system>
HT29 colon

>  <TGI>
6.3 µM

$$$$
>  <molecule>
O=[N+]([O-])C1C2C=CC(C2)[C@H]1c1ccccc1Cl (stereo partly drawn)

>  <tested-system>
HT29 colon

>  <TGI>
> 100 µM

$$$$
>  <molecule>
C/C=C(\C)C(=O)O[C@H]1C=CC(=O)O[C@H]1CNC(=O)[C@H](C)O

>  <tested-system>
HT29 colon

>  <TGI>
42.6 µM

$$$$
>  <molecule>
CC[N+](CC)(CC)CCCn1c2c(c3ccccc3c1=O)C(=O)c1ccccc1-2

>  <tested-system>
HT29 colon

>  <TGI>
> 100 µM

$$$$
>  <molecule>
COC(=O)CC1C(=O)OCc2c1cc1n(c2=O)Cc2c-1nc1ccccc1c2OC (stereo not drawn)

>  <tested-system>
HT29 colon

>  <TGI>
> 100 µM

$$$$
